Each entry below carries its reported Geo mean (%) at 0.78 nM.
Molecular target: T1, human CD200R1 expressed on cells (Jurkat-CD200R1, U937-CD200R1, HH cells) (human, UniProt Q8TD46 25-348)
T1 construct: whole, on cells; also called HH (CRL-2105); cell surface-expressed CD200R1
T1 sequence (looked up): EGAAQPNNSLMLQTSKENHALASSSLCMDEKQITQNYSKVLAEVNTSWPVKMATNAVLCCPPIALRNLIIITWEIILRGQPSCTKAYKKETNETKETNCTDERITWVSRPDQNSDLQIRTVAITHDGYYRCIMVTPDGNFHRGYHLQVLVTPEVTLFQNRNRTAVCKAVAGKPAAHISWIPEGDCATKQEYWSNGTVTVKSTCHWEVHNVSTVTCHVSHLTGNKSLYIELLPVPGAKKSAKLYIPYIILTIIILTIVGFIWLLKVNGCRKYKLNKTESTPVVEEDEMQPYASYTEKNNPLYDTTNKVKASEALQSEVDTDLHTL
Experiment: flow cytometry, HH cells; drawn table
Reply numerically in %, unit not repeated.

Solved cases (4 shown):
P001018 scFv mutant H3-Y102T (scFv) scFv: QVQLVQSGAEVKKPGASVKVSCKASGYTFTSYVMHWVRQAPGQGLEWMGYINPYNDDTNYNEKFKGRVTMTRDTSTSTVYMELSSLRSEDTAVYYCAREDYYGSRWGTWGQGTLVTVSSGGGGSGGGGSGGGGSDIVLTQSPASLAVSPGQRATITCRASKSVSTSGYSYMHWYQQKPGQPPKLLIYLASNLESGVPARFSGSGSGTDFTLTINPVEANDTANYYCQHSRELLTFGQGTKVEIK	15.5
P001018 (huOX108.1) (antibody, V domains shown, also called humanized antibody P001018) VH: QVQLVQSGAEVKKPGASVKVSCKASGYTFTSYVMHWVRQAPGQGLEWMGYINPYNDDTNYNEKFKGRVTMTRDTSTSTVYMELSSLRSEDTAVYYCAREDYYGSRWGYWGQGTLVTVSS VL: DIVLTQSPASLAVSPGQRATITCRASKSVSTSGYSYMHWYQQKPGQPPKLLIYLASNLESGVPARFSGSGSGTDFTLTINPVEANDTANYYCQHSRELLTFGQGTKVEIK	15.8
P001018 scFv mutant L3-L94S (scFv) scFv: QVQLVQSGAEVKKPGASVKVSCKASGYTFTSYVMHWVRQAPGQGLEWMGYINPYNDDTNYNEKFKGRVTMTRDTSTSTVYMELSSLRSEDTAVYYCAREDYYGSRWGYWGQGTLVTVSSGGGGSGGGGSGGGGSDIVLTQSPASLAVSPGQRATITCRASKSVSTSGYSYMHWYQQKPGQPPKLLIYLASNLESGVPARFSGSGSGTDFTLTINPVEANDTANYYCQHSRESLTFGQGTKVEIK	17.3
P001018 scFv mutant L3-L94H (scFv) scFv: QVQLVQSGAEVKKPGASVKVSCKASGYTFTSYVMHWVRQAPGQGLEWMGYINPYNDDTNYNEKFKGRVTMTRDTSTSTVYMELSSLRSEDTAVYYCAREDYYGSRWGYWGQGTLVTVSSGGGGSGGGGSGGGGSDIVLTQSPASLAVSPGQRATITCRASKSVSTSGYSYMHWYQQKPGQPPKLLIYLASNLESGVPARFSGSGSGTDFTLTINPVEANDTANYYCQHSREHLTFGQGTKVEIK	18.5

Now consider the entry below.
Quick one: give measured Geo mean (%) at 0.78 nM for P001018 scFv mutant H3-Y102K (scFv) scFv: QVQLVQSGAEVKKPGASVKVSCKASGYTFTSYVMHWVRQAPGQGLEWMGYINPYNDDTNYNEKFKGRVTMTRDTSTSTVYMELSSLRSEDTAVYYCAREDYYGSRWGKWGQGTLVTVSSGGGGSGGGGSGGGGSDIVLTQSPASLAVSPGQRATITCRASKSVSTSGYSYMHWYQQKPGQPPKLLIYLASNLESGVPARFSGSGSGTDFTLTINPVEANDTANYYCQHSRELLTFGQGTKVEIK 17.1
